system: FS-4 normal fibroblast cells; assay: MTS cell survival assay, FS-4; format: cell-based; conditions: FS-4 normal fibroblasts, doses 1-50 μM, time point not given
Response field label: string, one of label 1 (IC50 strictly below 40 µM) or label 0.

Consider the worked cases shown below.
CCOC(=O)c1n[nH]c2c1C(=O)C(SCc1ccco1)=CC2=O :: label 1
O=C(Nc1ccccc1)c1n[nH]c2c1C(=O)C(SCCCCO)=CC2=O :: label 1
CCOC(=O)c1n[nH]c2c1C(=O)C(SC1CCCC1)=CC2=O :: label 1
CCOC(=O)c1n[nH]c2c1C(=O)C(SCc1ccc(C(F)(F)F)cc1)=CC2=O :: label 1
C=C1C=C(S)C(=O)c2c(C(=O)OCC)n[nH]c21 :: label 1
CCOC(=O)c1n[nH]c2c1C(=O)C(SCC(=O)Nc1ccccc1)=CC2=O :: label 0
O=C(Nc1ccccc1)c1n[nH]c2c1C(=O)C(SCc1ccc(C(F)(F)F)cc1)=CC2=O :: label 0
CCCCCCCSC1=CC(=O)c2[nH]nc(C(=O)OCC)c2C1=O :: label 0

Query: In the record for CCOC(=O)c1n[nH]c2c1C(=O)C(SCCC(=O)OC)=CC2=O , is IC50 less than 40 µM?
Result: label 0

Query: In the record for CCOC(=O)c1n[nH]c2c1C(=O)C(SCc1ccc(OC)cc1)=CC2=O , is IC50 less than 40 µM?
Result: label 1

Query: In the record for C=C1C=C(SCC)C(=O)c2c(C(=O)OCC)n[nH]c21 , is IC50 less than 40 µM?
Result: label 1

Query: In the record for CCOC(=O)c1n[nH]c2c1C(=O)C(SCc1ccc(Cl)cc1)=CC2=O , is IC50 less than 40 µM?
Result: label 1
